assay: soluble fraction after stress (log2 fold change); higher = more stays soluble; pooled small domains, quantitative proteomics; conditions: stress: 75 degC;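 note: 20 min heating vs room temperature control held 20 min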
Recorded soluble fraction (log2) determines the group label, using group A = under -2, group B = from -2 up to -1, group C = -1 and over

QUERY: Hello team, could you let me know which band the following sequence falls into: `HMTEWDDATVKDAVEYFMSVNGRVPTVTDFKKENGLPSHPVIKQRYKINLHEWLNKNFPTYY`
RESULT: group B

--- query ---
QUERY: Hello team, could you let me know which band the following sequence falls into: `HMRFGNHHVYRTLMVLSDQKRKGRKQIADAVGIGEGSMRTIIEYLRGLDMIDIRQTGVKITRHGNAFL`
RESULT: group C

* * *

assay: soluble fraction after stress (log2 fold change); higher = more stays soluble; pooled small domains, quantitative proteomics; conditions: stress: 75 degC
measurement.name: soluble fraction (log2)
// return just the number, without any unit appended

Below are worked cases with known answers.
QUERY: # soluble fraction (log2) lookup, item `HMGRKPVSPEIVERVLQLAKSNPDWGYEHIAGTMRYLGYNVSATTIRHILEANGIVPDPERRL`
RESULT: -0.464

QUERY: # soluble fraction (log2) lookup, item `HMTKSTSMDLGGFMIVEGSETVRLGGQILQKDVDYTIDYFSGKINFISEEALNPGAEISVSYEENQ`
RESULT: -0.225

QUERY: # soluble fraction (log2) lookup, item `HMQTEFVISSGEQPKRLDVFLLQREPYLSRAALQRMIAAGWVRVNNHLAKSSQRIKAGDVIVFD`
RESULT: -1.42

Next:
QUERY: # soluble fraction (log2) lookup, item `HMTINQIDPASGRKVGYWIITGEMKPKEGFSPDNKIEEGIYVNSRKSGKWIKYWPNGNVRSEIIYKNGR`
RESULT: -0.677

QUERY: # soluble fraction (log2) lookup, item `HMGSVNDNVQKLTSQIGETTETGDTITPEDVELYKKMVDPLSTMAQKLEAAEILKLKGIIGSNGIIV`
RESULT: -0.211

QUERY: # soluble fraction (log2) lookup, item `HMAHETIDVAALRVGMFVQLDLGWLSHPFPLSSFRISSEDQIATIRALGLKRVRWSSEQSDS`
RESULT: -4.58

QUERY: # soluble fraction (log2) lookup, item `HMTSPLQIHPNPATKHIELGLESPEVVLIKDINGKTVYQELVAPNQYIDIEHLKNGIYFIESKNKFGKLIK`
RESULT: 0.0829

QUERY: # soluble fraction (log2) lookup, item `HMVTLQEVKQYLRIDFEEEDPLLLSLLATAKQQVMNVGRMDEAQLSEHEDTARTAILYAVSYLYENRN`
RESULT: -1.82

* * *

assay: soluble fraction after stress (log2 fold change); higher = more stays soluble; pooled small domains, quantitative proteomics; conditions: stress: 75 degC
measurement.name: soluble fraction (log2)
// return just the number, without any unit appended

Below are worked cases with known answers.
QUERY: # soluble fraction (log2) lookup, item `HMSTADGGYPSIVINDGRVIDTNLQKLGLDRSWLSAELKRQGKGSEKDIFLMTVNQRREVYISVKEA`
RESULT: -1.89

QUERY: # soluble fraction (log2) lookup, item `HMYDESVFTGEYHYYYEKLSDDDKLIYRQIYAMMQKRMDGISLNTTDTDNVSRIQQFVLLDNPQF`
RESULT: -2.61

QUERY: # soluble fraction (log2) lookup, item `HMNRIFQERVVPAELDTLRADKVAASLFSDFSRNELAHWIKMGDLSINGGVKKAKDKLFEGDVLILDVEIV`
RESULT: -0.944

Here is the next item to consider.
QUERY: # soluble fraction (log2) lookup, item `HMSDIPEGYMSRVQLGDEWGIHLATFDKAVIAVKEKLGTVVFIDKSNNTTAGYSPEQQTIIYDWLAEN`
RESULT: -2.22

* * *

assay: soluble fraction after stress (log2 fold change); higher = more stays soluble; pooled small domains, quantitative proteomics; conditions: stress: 75 degC
measurement.name: soluble fraction (log2)
// return just the number, without any unit appended

Below are worked cases with known answers.
QUERY: # soluble fraction (log2) lookup, item `HMDHAVINSEEVTIKDLSEKIGVSAAEIIKALFTEGIIKTINDKIEYEYAQYVAGMFGVELTLKL`
RESULT: 0.357

QUERY: # soluble fraction (log2) lookup, item `HMETGKLIKELRLKKGMTQEELADKTEVSSRTIQRIENGEVDPRAYTLQMIARALEVDYSLFME`
RESULT: -0.408

QUERY: # soluble fraction (log2) lookup, item `HMEVTLGLGSMVRLLGEPYLGSTGRVVELPDQAERFASGLTAKVAVVERHDGELIRVPVTNLLLME`
RESULT: -1.25

QUERY: # soluble fraction (log2) lookup, item `HMTLSENEKIIVDTIMKYQPLHIDVLNQQVKVDFYTLLGLLTKLEMEGIVLKNPGNIYKINTL`
RESULT: -0.378

Here is the next item to consider.
QUERY: # soluble fraction (log2) lookup, item `HMQAGNAVEQYPTIGRLEEVTLGRSQPGAPIGERLSTLETVVFKRNFNDDSLFDRTERLKKTILGG`
RESULT: -0.104

* * *

soluble fraction (log2) values by entry
experiment: soluble fraction after stress (log2 fold change); higher = more stays soluble; pooled small domains, quantitative proteomics; conditions: stress: 75 degC

QUERY: # soluble fraction (log2) lookup, item `HMPPLVLRGVVMGADGARLAILAQGEAGAALGIGETWKEYTLRSVTDQSATLEHRSGTITLTR`
RESULT: -0.701

* * *

experiment: soluble fraction after stress (log2 fold change); higher = more stays soluble; pooled small domains, quantitative proteomics; details: stress: 75 degC
measurement.name: soluble fraction (log2)
// return just the number, without any unit appended

Below are worked cases with known answers.
QUERY: # soluble fraction (log2) lookup, item `HMLPVYSITEAAERLDIPASTIKWYADRFASYISPSKGKGRKRFTPEDLATLQKIHELSQDHTTEEAEAML`
RESULT: -0.0974

QUERY: # soluble fraction (log2) lookup, item `HMGELRAPLPGVIVSIPVKEGDEVKAGQAILIIEAMKMESEISSPIDAKVAKIVVKERVLVQEGDILIILE`
RESULT: -1.33

QUERY: # soluble fraction (log2) lookup, item `HMGLSARIAQRIHGLRTAQRMSLEALAARSGVSRSMISLIERNEASPTAVVLEKIATGLNVVLAALFDTP`
RESULT: -1.76

Next:
QUERY: # soluble fraction (log2) lookup, item `HMFIGFLHQLKEAGVPVSIREYLDFLSGLDKGITNLNTNSFYHFARASLVKDERHYDRFDRTFSEFFEGAL`
RESULT: -3

QUERY: # soluble fraction (log2) lookup, item `HMESLGEKIKNIRISNNLKQSELADILHISEKTISSWENNRTTPDLNMIYKISNYFKKSFYYLISDDYI`
RESULT: -0.908

QUERY: # soluble fraction (log2) lookup, item `HMHVSLSGKIHSELRKLILNGELKAGERLPSEPDLAHELGVSRNSLREAIGLLQREGLLLKKHGIGTFVTD`
RESULT: -1.42

QUERY: # soluble fraction (log2) lookup, item `HMAGRKMMVMANNLSVRKSANSLSEKLADLSRGDTVEYISSTNGWNKVRYKGQIGYVSSYYLKDTGEEVE`
RESULT: -0.562

QUERY: # soluble fraction (log2) lookup, item `HMKYGPSTVATLKVARLGEMGAFLDAETGDTSDDILLHKTQQTAPVKVGDEVEVFLYLDPKRRLTASMRV`
RESULT: -0.118

QUERY: # soluble fraction (log2) lookup, item `HMLSAGETYTLGYLKASDGILFTAADGSEQTVMQRVQVRLYDNGDGTYTARLADDIAYSAVVTEDMIDK`
RESULT: 0.27

QUERY: # soluble fraction (log2) lookup, item `HMEEITLQEQINFIKDMLLNKEKFHLTDVITKKSKIYVVSLFLALLELIRLEEINFRQTQNFSDIIISRI`
RESULT: 0.0172

QUERY: # soluble fraction (log2) lookup, item `HMIERVLRTEEHIEAFAGEEVEAKLFAPIDGKKTLRGILGGIEDGRVILTVGDTEYRIEHAKISRLTTVFD`
RESULT: -0.881

* * *

soluble fraction (log2) values by entry
experiment: soluble fraction after stress (log2 fold change); higher = more stays soluble; pooled small domains, quantitative proteomics; settings: stress: 75 degC
// return just the number, without any unit appended

QUERY: # soluble fraction (log2) lookup, item `HMNHYIGVDRAKEIALNHANLSETDVVFTKEKLENDDGGAEYEIEFHSGRTEYDYTIDAASGNIIEYDVDY`
RESULT: 0.324

* * *

assay: soluble fraction after stress (log2 fold change); higher = more stays soluble; pooled small domains, quantitative proteomics; settings: stress: 75 degC
soluble fraction (log2) values by entry
// return just the number, without any unit appended

Below are worked cases with known answers.
QUERY: # soluble fraction (log2) lookup, item `HMYDPVNEIGRVLKKIRQERSLTLDNVAEITGVSKTMLGQIERGVSVPTISVLWKIAKGLQVSLSTLLNE`
RESULT: -3.24

QUERY: # soluble fraction (log2) lookup, item `HMNEKMKEIGLRIKELRELSDISAQGMADHLKIPLETYQEYEDGKKDIPASILFEISQKMEVDMGLLLTGE`
RESULT: -0.476

QUERY: # soluble fraction (log2) lookup, item `HMTDYREILRLLSLGLSRTQIADSLNVSRTTVIHTLQRAVAQELDWQTAEGMSDRELVAKLFPV`
RESULT: -3.95

QUERY: # soluble fraction (log2) lookup, item `HMWTIDPLDWKTENADQIVEKVMSEAKENAIILLHDRYEASVEAALRIVDLLKEQGYTFVTADKLV`
RESULT: -0.154

QUERY: # soluble fraction (log2) lookup, item `HMLTGADAEKATAAAQAEFPGGTVLRVETDADGTYEAHVRKADGTEVEVKMDKDFKVTSVEE`
RESULT: 0.142

Next:
QUERY: # soluble fraction (log2) lookup, item `HMNPSFTMGTRIKEYIDAHYLEDLKLADIAEALHINLYYLSHTFKDLTGSSPMQYIIRRRIEE`
RESULT: -0.857

QUERY: # soluble fraction (log2) lookup, item `HMGLNNVSDILRLDFNSFKKKFDKLPSGYKNSVVEQAALMIKSGELDSIKIKDYIEKSMGIELDI`
RESULT: -0.511

QUERY: # soluble fraction (log2) lookup, item `HMSVKLYPNPTRSVTTFATDVDKWYLYDNQGKLVSEGNTKTIDVTAFPVGIYFVKTIKGNNSTFVKLIV`
RESULT: -2.14

All figures here come from the domain aggregation screens of Martell et al. (2025).
